# kcat per entry
B1: glmS ribozyme (parent)
chain: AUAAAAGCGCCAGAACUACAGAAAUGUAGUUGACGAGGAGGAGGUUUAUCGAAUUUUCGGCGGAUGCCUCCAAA

- Variants of: B1
- Experiment Notes: kcat; higher = faster cleavage; RNA array
- Experimental Context: with glucosamine-6-phosphate
Variants at the floor of the assay were thinned out.
Supply the numeric figure in s⁻¹, leaving out any unit text.

Consider the worked cases shown below.
> print(dat)
    mutation.code  scale.unit  result.value
1       C16G U65A         s⁻¹      0.000589
2  C10G U47G G60C         s⁻¹      0.000977
3       A53U G66C         s⁻¹      0.000389
4       A52U U69A         s⁻¹      5.73e-05
5       G44A U56G         s⁻¹      0.000224

[in] // query kcat value for entry G32U A42C G51C C67U
[out] 1.49e-05
